test system: spontaneously hypertensive rats (SHR/Izm); assay: Blood pressure lowering effect in spontaneously hypertensive rats; type: in vivo; settings: Rattus norvegicus, ip, male SHR/Izm rats, intraperitoneal, measured over time, read-out: lowered the systolic blood pressures by up to, compared with the value before administration
Structures can show the parent of a compound that is named as a salt.
PROPERTY_LABEL: inhibition in vivo at 10 mg/kg

Indicate its recorded inhibition in vivo at 10 mg/kg; the compound in question is C[C@H](CNC[C@@](C)(O)c1ccccc1)NS(=O)(=O)c1ccc2cnccc2c1.Cl [Example 86, hydrochloride]
≥ 30%

Return inhibition in vivo at 10 mg/kg for the following compound: C[C@H](CNCCc1c[nH]c2ccccc12)NS(=O)(=O)c1ccc2cnccc2c1.Cl [Example 36, hydrochloride]
≥ 30%

Name the recorded inhibition in vivo at 10 mg/kg of the item C[C@H](CNC[C@H](O)c1ccccc1)NS(=O)(=O)c1ccc2cnccc2c1.Cl [Example 87, hydrochloride] in your answer.
≤ 20%

Check the records and state inhibition in vivo at 10 mg/kg for CCCCNC[C@@H](C)NS(=O)(=O)c1ccc2cnccc2c1 [Example 5, dihydrochloride]
≤ 16%

More entries:
Let me know recorded inhibition in vivo at 10 mg/kg for C[C@H](CNCCc1ccc(F)cc1)NS(=O)(=O)c1ccc2cnccc2c1.Cl [Example 53, hydrochloride] , thanks.
≥ 30%

Please supply the value of reported inhibition in vivo at 10 mg/kg for the item C[C@H](CNC[C@@H](O)c1ccccc1)NS(=O)(=O)c1ccc2cnccc2c1.Cl [Example 83, hydrochloride]
≥ 30%

Respond only with inhibition in vivo at 10 mg/kg recorded for C[C@H](CNC[C@@H](O)c1ccsc1)NS(=O)(=O)c1ccc2cnccc2c1.Cl [Example 90, hydrochloride]
≤ 20%
